- Test system: HFL-1 cells
- measurement_protocol: IL8 assay in the presence of Human Serum Albumin
- Format: cell-based
- condition_description: HFL1, S1P (5 μM) induced IL-8, HFL-1 cells, with 2% HSA, read-out: HSA IL8 EC50
IC50 listing for selected compounds.
Express the result in nM but write the number alone.

Examples with their reported IC50 follow.
[[record]]
chem_smiles = "COc1cc(CNC(=O)Nc2cc(Cl)nc(OCC(F)F)c2)nnc1-c1cn(C)nc1C(F)(F)F"
unit_descriptor = "nM"
value = 119

[[record]]
chem_smiles = "CCOc1cc(NC(=O)NCc2cc(C)c(-c3cn(C)nc3C3CC3)nn2)cc(C(F)(F)F)n1"
unit_descriptor = "nM"
value = 278

[[record]]
chem_smiles = "Cc1cc(CNC(=O)Nc2cc(OCCO)nc(C(F)(F)F)c2)nnc1-c1cn(C)nc1C(F)(F)F"
unit_descriptor = "nM"
value = 652


Proceeding to the next compound to report its IC50.
## Input Entry Cc1cc(CNC(=O)Nc2cc(Cl)nc(OCCF)c2)nnc1-c1cn(C)nc1C(F)(F)F : reported IC50 = ?
## Output 74.9

###

pEC50 listing for selected compounds.
- system_tested: human GPCR sphingosine 1-phosphate receptor 2 (S1PR2) (Homo sapiens, UniProt O95136)
- Sequence (O95136 whole entry): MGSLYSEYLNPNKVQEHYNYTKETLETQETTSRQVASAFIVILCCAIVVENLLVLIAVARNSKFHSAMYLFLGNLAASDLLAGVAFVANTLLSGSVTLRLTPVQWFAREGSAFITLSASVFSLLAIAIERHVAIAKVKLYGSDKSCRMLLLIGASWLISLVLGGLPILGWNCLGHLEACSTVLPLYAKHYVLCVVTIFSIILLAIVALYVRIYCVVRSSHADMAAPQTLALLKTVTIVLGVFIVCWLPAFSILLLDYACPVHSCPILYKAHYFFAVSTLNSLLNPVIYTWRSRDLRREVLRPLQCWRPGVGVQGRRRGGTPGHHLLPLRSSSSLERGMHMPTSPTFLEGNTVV
- measurement_protocol: S1P2 antagonist assay (Ca2+ flux, S1P at EC80)
- condition_description: CHO-S1PR2 cells, highest concentration 20 μM
Convention used: pEC50 is expressed as -log10 of the molar concentration.

Examples with their reported pEC50 follow.
[[record]]
chem_smiles = "CCOc1nc(C)cc(N/C(=N/C#N)NCc2cc(C)c(-c3cn(C)nc3C(F)(F)F)nn2)c1C"
measurement_type = "pEC50"
value = 6.97

[[record]]
chem_smiles = "Cc1cc(CNC(=O)Nc2cc(Cl)nc(OCC(F)F)c2)nnc1N1CC(S(C)(=O)=O)C1"
measurement_type = "pEC50"
value = 6.73

[[record]]
chem_smiles = "CCOc1cc(NC(=O)NCc2cc(C)c(-c3cnn(C)c3C)nn2)cc(C(F)(F)F)n1"
measurement_type = "pEC50"
value = 6.02


## Input Entry Cc1cc(CNC(=O)Nc2cc(OCC(C)(F)F)nc(C(F)(F)F)c2)nnc1-c1cn(C)nc1C(F)(F)F : reported pEC50 = ?
## Output 7.18

###

- system_tested: S1PR2 (Homo sapiens, UniProt O95136)
- Sequence (O95136 whole entry): as above
- measurement_protocol: GTP-γS binding assay ([35S]GTPγS, S1P at EC80, S1PR2 membranes)
- condition_description: membranes from stable cell line over expressing S1PR2, read-out: S1PR2 EC
Cut-off 200 nM on EC50: below means 1, at or above means 0.

## Input is_below(EC50, 200 nM) for CCOc1cc(NC(=O)NCc2cc(C)c(N3C[C@@H](C)O[C@@H](C)C3)nn2)cc(C)n1 ?
## Output 0

## Input is_below(EC50, 200 nM) for Cc1cc(CNC(=O)Nc2cc(OC3CCOCC3)nc(C(F)(F)F)c2)nnc1-c1cn(C)nc1C(F)(F)F ?
## Output 0

## Input is_below(EC50, 200 nM) for CCOc1nc(C(F)(F)F)cc(NC(=O)NCc2cc(C)c(-c3cn(C)nc3C(F)(F)F)nn2)c1C ?
## Output 1

## Input is_below(EC50, 200 nM) for Cc1cc(CNC(=O)Nc2cc(C(F)(F)F)nc(OCCO)c2C)nnc1-c1cn(C)nc1C(F)(F)F ?
## Output 1

## Input is_below(EC50, 200 nM) for Cc1cc(CNC(=O)Nc2cc(OCC3CC(F)(F)C3)nc(C(F)(F)F)c2)nnc1-c1cn(C)nc1C(F)(F)F ?
## Output 0

## Input is_below(EC50, 200 nM) for COc1cc(CNC(=O)Nc2cc(Cl)nc(OCC(F)F)c2)nnc1-c1cn(C)nc1C(F)(F)F ?
## Output 1
